# Assay Target: neuraminidase of A/South Korea/90207/2020 NA-H275Y + PA-I38T virus (Influenza A virus (A(H1N1)pdm09), UniProt A0A0X9QTS2, H275Y)
# Type: biochemical
Readout: IC50 (nM)
I only need the number, in nM, no unit after it.

Can you share its IC50? I mean this compound: CCC(CC)[C@H](NC(C)=O)[C@@H]1[C@H](O)[C@@H](C(=O)O)C[C@H]1N=C(N)N 16.2

----------
# Assay Target: neuraminidase of A/South Korea/90207/2020 PA-I38T virus (Influenza A virus (A(H1N1)pdm09), UniProt A0A0X9QTS2)
# Format: biochemical
Readout: IC50 (nM)
Quick note: give the figure in nM, leave out the unit.

Quick one: IC50 of CCC(CC)[C@H](NC(C)=O)[C@@H]1[C@H](O)[C@@H](C(=O)O)C[C@H]1N=C(N)N ? 0.26
